# procedure summary: NCI Yeast Anticancer Drug Screen. Data for the cln2 rad14 strain (AID 165);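 note: 0% = growth equal to vehicle treated cultures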
# measurement parameters: S. cerevisiae cln2 rad14 strain, at 50.0 µM, hits give high values
The panel holds about 79,000 compounds, 15% with a hit somewhere; the sample as a whole holds those more often.
Collected growth inhibition values appear next to each entry.
Note: unit % is implicit; provide only the numeric part.

compound=COC1=CC(=Nc2ccc(N(CCCl)CCCl)cc2)C=CC1=O measurement_units=% recorded_result=11.4
compound="CC(=O)OC1(C(C)=O)CC2(c3ccccc3)OC1(c1ccccc1)c1ccccc12 (stereo not drawn)" measurement_units=% recorded_result=10.2
compound=CCN(CC)CC(=O)c1ccccc1 measurement_units=% recorded_result=9.45
compound="COC(=O)C1C(c2ccc(-c3ccccc3)cc2)N1C1CCCCC1 (stereo not drawn)" measurement_units=% recorded_result=-2.05
compound="CC(Cl)[N+](=O)[O-] (stereo not drawn)" measurement_units=% recorded_result=16.9
compound="CC1=CC2C(C=C1)S(=O)(=O)N1CC21c1ccccc1 (stereo not drawn)" measurement_units=% recorded_result=-8.3
compound=O=C1NC(=S)NC(=O)C1=Cc1cccc2cc3ccccc3cc12 measurement_units=% recorded_result=93.3
compound="CCN(CC)C1C=CCCC1 (stereo not drawn)" measurement_units=% recorded_result=0.75

[ask] Fill blank: measured growth inhibition of the compound CNC(=O)Oc1cccc2c1C(=O)OC2=O is ____.
[reply] -25.1

[ask] What measured growth inhibition goes with [N-]=[N+]=Nc1nc2ccccc2c(N=[N+]=[N-])c1Cl ?
[reply] 31.9

[ask] Data request, read-out growth inhibition, for CCCCN1COC2CCCCC21 (stereo not drawn)
[reply] -12.6

[ask] What does the record list as growth inhibition for CC(=S)N=Cc1c(O)[nH]c(=O)[nH]c1=O ?
[reply] 21.6

[ask] Param item = O=C(O)COc1nc(Cl)c(Cl)cc1Cl ; retrieve measured growth inhibition.
[reply] -1.75

---

Listed here are compounds together with their documented growth inhibition.
# procedure summary: NCI Yeast Anticancer Drug Screen. Data for the rad50 strain (AID 155);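 note: 0% = growth of vehicle-only cultures of the same strain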
# measurement parameters: S. cerevisiae rad50 strain growth inhibition; at 50.0 µM; hits give high values
# Procedure: Growth inhibition of yeast strains with defined genetic alterations is measured as a screen for potential anti-cancer activity. Selected strains with alterations in DNA damage repair or cell cycle control were exposed to compounds and growth inhibition was measured relative to vehicle treated controls. The strain used in this assay is rad50
The panel holds about 79,000 compounds, 15% with a hit somewhere; the sample as a whole holds those more often.
Field format: number, assumed %, no unit text.

Below, 3 compounds whose answers are already recorded.
compound=[CH3][Sn]([CH3])([n]1cnc2ccccc21)[n]1cnc2ccccc21 measurement_units=% recorded_result=0.85
compound=O=C(CBr)Nc1ccccc1 measurement_units=% recorded_result=97
compound=CCN(CC)C(=S)SC1C(=O)NC(=O)NC1=O measurement_units=% recorded_result=23.3

[ask] I'd like to know its growth inhibition. The compound in question is S=C=NCc1ccccc1
[reply] -1.55

[ask] Fill in: growth inhibition of C/C=C/COC(=O)CO[N+](=O)[O-] is ___
[reply] 2

[ask] growth inhibition lookup needed for CC(=O)O[C@H]1C(=O)[C@@]2(C)C(C(OC(=O)c3ccccc3)[C@]3(O)C[C@H](OC(=O)C(OC(=O)CCCC(=O)NCCCN(C)C)C(NC(=O)c4ccccc4)c4ccccc4)C(C)=C1C3(C)C)C1(OC(C)=O)COC1C[C@@H]2O (stereo not given in full) , thanks.
[reply] -1.1

[ask] If you can, please state the reported growth inhibition value of CCC(C)C1(CCc2ccccc2)C(=O)NC(=O)NC1=O (stereo not given) .
[reply] -2.8

[ask] Which growth inhibition reading was recorded for the compound O=C(O)CCC(=O)O.[Ni] ?
[reply] -29.1

[ask] // lookup growth inhibition for O=[N+]([O-])c1ccc(OCc2ccc(Cl)c(S(=O)(=O)F)c2)c(Cl)c1
[reply] -18.1

[ask] Which growth inhibition reading was recorded for the compound O=C(O)C1CCCC(C(=O)O)[N-]1.O=C(O)C1CCCC(C(=O)O)[N-]1.[Cr+2] (stereo not given) ?
[reply] 31
